- Assayed Target: GMPPNP-loaded H-Ras or GTP-loaded K-Ras
- Measurement Protocol: FP competition, displacement of probe R4007 from Ras
*1 amine or outer side, *2 acyl side, *3 side chain or, on linkers, in order; H or OH if unused. Bridges are numbered along the chain shown (N, C = ends). [ ]: non-standard residue; d: D form. The star is where a group is joined. Trp(7-aza) = N[C@@H](Cc1c[nH]c2ncccc12)C(=O)O; NMePhe(4-F) = CN[C@@H](Cc1ccc(F)cc1)C(=O)O; mXylylene = c1cc(C[*:1])cc(C[*:2])c1; NMeY = CN[C@@H](Cc1ccc(O)cc1)C(=O)O; Phg = N[C@H](C(=O)O)c1ccccc1; Tle = CC(C)(C)[C@H](N)C(=O)O; NMeA = CN[C@@H](C)C(=O)O; Nva = CCC[C@H](N)C(=O)O; Acryloyl = C=CC(=O)*; Sar = CNCC(=O)O
Outcome Measure: pIC50
// scale note: pIC50 = -log10(conc_M); give the bare number

Ac-[Nva]CY[Tle]AK(Acryloyl)[NMeA][Phg][Trp(7-aza)]Y[NMePhe(4-F)][Sar]C-NH2 (linker 2-13 via mXylylene; SMILES C=CC(=O)NCCCC[C@@H]1NC(=O)[C@H](C)NC(=O)[C@H](C(C)(C)C)NC(=O)[C@H](Cc2ccc(O)cc2)NC(=O)[C@@H](NC(=O)[C@H](CCC)NC(C)=O)CSCc2cccc(c2)CSC[C@@H](C(N)=O)NC(=O)CN(C)C(=O)[C@H](Cc2ccc(F)cc2)N(C)C(=O)[C@H](Cc2ccc(O)cc2)NC(=O)[C@H](Cc2c[nH]c3ncccc23)NC(=O)[C@H](c2ccccc2)NC(=O)[C@H](C)N(C)C1=O) [R4123]    7.07

Sure, the documented pIC50 for Ac-[Nva]C[NMeY][Tle]KH[NMeA][Phg][Trp(7-aza)]Y[NMePhe(4-F)][Sar]C-NH2 (linker 2-13 via mXylylene; SMILES CCC[C@H](NC(C)=O)C(=O)N[C@H]1CSCc2cccc(c2)CSC[C@@H](C(N)=O)NC(=O)CN(C)C(=O)[C@H](Cc2ccc(F)cc2)N(C)C(=O)[C@H](Cc2ccc(O)cc2)NC(=O)[C@H](Cc2c[nH]c3ncccc23)NC(=O)[C@H](c2ccccc2)NC(=O)[C@H](C)N(C)C(=O)[C@H](Cc2c[nH]cn2)NC(=O)[C@H](CCCCN)NC(=O)[C@H](C(C)(C)C)NC(=O)[C@H](Cc2ccc(O)cc2)N(C)C1=O) [R4117] is 7.32

Provenance of the data: patent US20190119358A1
